Experiment: CEETOX_H295R_11DCORT: CeeTox H295R High-throughput Steroidogenesis Assay for 11-Deoxycortisol (11DCORT) (AID 2283432)
Details: actives raise or lower the signal
Procedure: CEETOX_H295R is a cell-based, multiplexed-readout assay that uses H295R, a human adrenal gland cell line, with measurements taken at 48 hours after chemical dosing in a 96-well plate.CEETOX_H295R_11DCORT is one of 23 assay component(s) measured or calculated from the CEETOX_H295R assay. […] This assay endpoint, CEETOX_H295R_11DCORT, was analyzed with bidirectional fitting relative to DMSO as the negative control and baseline of activity. […]
Activity calls are given as the source filed them. Rule for the calls: active = hit-call score of the fitted dose curve at least 0.9, where 1 is the maximum; inactive = score below 0.9.
Log the outcome using a class from True = active, False = inactive

Assay result, entry NC(=O)Cn1c(=O)cc(CCN2CCN(c3nccc4sccc34)CC2)c2ccc(F)cc21 — outcome?
True

Assay result, entry c1cc(-c2ccncc2)ccn1 — outcome?
False

Assay result, entry COc1ccc(S(=O)(=O)N2C(=O)[C@@](c3ccccc3OC)(N3C[C@H](O)C[C@H]3C(=O)N(C)C)c3cc(Cl)ccc32)c(OC)c1 — outcome?
False

Assay result, entry Cc1nc(C)nc(N2C[C@@H](C)N(c3ccnc([C@@H](C)O)n3)[C@@H](C)C2)n1 — outcome?
False

Assay result, entry Nc1ccccc1N — outcome?
False

Assay result, entry COc1ccc2c(c1)c(CC(=O)O)c(C)n2C(=O)c1ccc(Cl)cc1 — outcome?
False

Assay result, entry COc1ccc(C)cc1N — outcome?
False

Assay result, entry Cc1cc(NC(=O)C(=O)O)cc(C)c1Oc1ccc(O)c2c1CCC2 — outcome?
False

Assay result, entry Nc1ccc2c(c1)C(=O)c1ccccc1C2=O — outcome?
False

###

Read-out: Peroxisomal acyl-coenzyme A oxidase 1 (ACOX1) gene, ACOX1 (gene 51)
Experiment: LTEA_HepaRG_ACOX1: Life Technologies and Expression Analysis (LTEA) Assay for Peroxisomal acyl-coenzyme A oxidase 1 (ACOX1) gene using HepaRG (AID 2283467)
Conditions: mRNA level, 48 h; actives raise or lower the signal
Active and inactive are the calls of the source. Rule for the calls: active = hit-call score of the fitted dose curve at least 0.9, where 1 is the maximum; inactive = score below 0.9.
Log the outcome using a class from active, inactive

Assay result, entry CCCCN(CCCC)CCCC — outcome?
inactive

Assay result, entry CCCCCCCCCCC — outcome?
inactive

Assay result, entry COc1ccc(S(=O)(=O)N2C(=O)[C@@](c3ccccc3OC)(N3C[C@H](O)C[C@H]3C(=O)N(C)C)c3cc(Cl)ccc32)c(OC)c1 — outcome?
active

Assay result, entry Cc1oc(-c2ccccc2)nc1CCOc1cccc2c1ccn2CCC(=O)O — outcome?
active

Assay result, entry CCCCCC(=O)O — outcome?
inactive

Assay result, entry CC(=O)OCCOCCOCCOC(C)=O — outcome?
inactive

Assay result, entry Cc1ccc(C)c(C)c1 — outcome?
inactive

Assay result, entry C=CCc1ccc(O)c(OC)c1 — outcome?
inactive

###

Read-out: Interleukin-8 (IL8), CXCL8 (gene 3576)
Assay: BSK_hDFCGF_IL8: BioMAP Diversity Plus: hDFCGF Assay for Interleukin-8 (IL8) Biomarker Activity (AID 2283058)
Settings: primary human foreskin fibroblasts; actives raise or lower the signal
Calls of active or inactive are those of the source. The calls were made as follows: active = hit-call score of the fitted dose curve at least 0.9, where 1 is the maximum; inactive = score below 0.9.
Log the outcome using a class from active, inactive

Assay result, entry COc1cc(-c2nc(NC(=O)c3cc4cc(C)cc(C)c4n3CC(=O)O)sc2CCC2CCCCC2)c(OC)cc1Cl — outcome?
active

Assay result, entry Cc1cccc([N+](=O)[O-])c1C — outcome?
inactive

Assay result, entry CCCCN(CCCC)CCCC — outcome?
inactive

Assay result, entry CCCCCCCCCCO — outcome?
inactive

Assay result, entry Cc1ccc(N(C)C)cc1 — outcome?
inactive

Assay result, entry O=C(OCCCCCOC(=O)c1ccccc1)c1ccccc1 — outcome?
inactive

Assay result, entry Cc1cc(NC(=O)C(=O)O)cc(C)c1Oc1ccc(O)c2c1CCC2 — outcome?
inactive

Assay result, entry O=C(O)CCCCC(=O)O — outcome?
inactive

Assay result, entry CCOC(=O)C(C)(C)Oc1ccc(Cl)cc1 — outcome?
inactive

Assay result, entry CCCCCCCCCCCCCO — outcome?
active

Assay result, entry CCCCOC(=O)CCCCCCCCC(=O)OCCCC — outcome?
inactive

Assay result, entry NCCO — outcome?
inactive

Assay result, entry Cc1nc(-c2ccc3c(c2)CCN(CCC2CCC(NC(=O)/C=C/c4ccc(F)cc4)CC2)CC3)no1 (stereo not drawn) — outcome?
inactive

Assay result, entry CC(=O)OC/C=C(\C)CCC=C(C)C — outcome?
inactive

Assay result, entry CCc1c(C(=O)NN2CCCCC2)nn(-c2ccc(Cl)cc2Cl)c1-c1ccc(Br)cc1 — outcome?
active

Assay result, entry CC(C)c1ccc(C(=O)N=C(N)N)cc1S(C)(=O)=O — outcome?
inactive

Assay result, entry NS(=O)(=O)c1cc2c(cc1Cl)NCNS2(=O)=O — outcome?
inactive

Assay result, entry CCCCCCCCCCCCCCCC — outcome?
inactive

Where do the numbers come from? From PubChem BioAssay (EPA / NIEHS).
